Tested on: HeLa
assay: Antiproliferative activity against human HeLa cells after 96 hrs
Assay type: functional, cell-based
Here, each record is paired with measured IC50 data.
Reply with just the number (in µg/mL).

CCCCCCNC(=O)Nc1ncnc2c1ncn2[C@@H]1O[C@H](COC(=O)NC)[C@@H](O[Si](C)(C)C(C)(C)C)[C@H]1O[Si](C)(C)C(C)(C)C :: 88
CCCNC(=O)Nc1ncnc2c1ncn2[C@@H]1O[C@H](COC(=O)NC)[C@@H](O[Si](C)(C)C(C)(C)C)[C@H]1O[Si](C)(C)C(C)(C)C :: 55
CNC(=O)NC[C@H]1O[C@@H](n2cnc3c(NC(=O)NCc4ccccc4)ncnc32)[C@H](O[Si](C)(C)C(C)(C)C)[C@@H]1O[Si](C)(C)C(C)(C)C :: 3.8
CNC(=O)OC[C@H]1O[C@@H](n2cnc3c(NC(=O)NCc4ccccc4)ncnc32)[C@H](O[Si](C)(C)C(C)(C)C)[C@@H]1O[Si](C)(C)C(C)(C)C :: 23

Query molecule follows.
**Query** Value lookup for IC50; key = `CNC(=O)NC[C@H]1O[C@@H](n2cnc3c(NC(=O)Nc4ccc(I)cc4)ncnc32)[C@H](O[Si](C)(C)C(C)(C)C)[C@@H]1O[Si](C)(C)C(C)(C)C`
**Result** 18
